System: E. faecalis
Assay: microbe, parasite or virus in culture
Format: cell-based
Details: Enterococcus faecalis, ATCC29212, ATCC 29212; E. faecalis; gyrA WT, parC WT
Task for the reader: assign each of the following compounds its reported MIC.
Reply with just the number (in µg/mL).

Input: Entry CCCn1c(=O)cc(C)c2cc3c(C)cc(=O)n4c3c(c21)OC4 [DNM-8] has what MIC?
Output: 8

Input: Entry CCn1c(=O)cc(C)c2cc3c(C)cc(=O)n4c3c(c21)OC4 [DNM-2] has what MIC?
Output: 8

###

Tested on: WT S. aureus (ATCC 29213, WT)
Assay: microbe, parasite or virus in culture
Assay type: cell-based
Conditions: Staphylococcus aureus, ATCC29213, ATCC 29213; WT GyrA and WT ParC; three independent replicates; read-out: MIC against S. aureus 29213
Task for the reader: assign each of the following compounds its reported MIC.
Reply with just the number (in µg/mL).

Input: Entry Cc1cc(=O)n2c3c(c4c(cc13)c(C)cc(=O)n4CC(C)(C)C)OC2 has what MIC?
Output: 32

Input: Entry Cc1cc(=O)n(C)c2c3c4c(cc12)c(C)cc(=O)n4C(C)O3 (centres unmarked) has what MIC?
Output: 4

Input: Entry CCCCCCCCCC(=O)N[C@@H](Cc1c[nH]c2ccccc12)C(=O)N[C@H](CC(N)=O)C(=O)N[C@@H](CC(=O)O)C(=O)N[C@@H]1C(=O)NCC(=O)N[C@@H](CCCN)C(=O)N[C@@H](CC(=O)O)C(=O)N[C@H](C)C(=O)N[C@@H](CC(=O)O)C(=O)NCC(=O)N[C@H](CO)C(=O)N[C@@H]([C@H](C)CC(=O)O)C(=O)N[C@@H](CC(=O)c2ccccc2N)C(=O)O[C@@H]1C [daptomycin, reference compound] has what MIC?
Output: 2

Input: Entry CCn1c(=O)cc(C)c2cc3c(C)cc(=O)n4c3c(c21)OC4 has what MIC?
Output: 8

Input: Entry Cc1cc(=O)[nH]c2c(O)c3c(cc12)c(C)cc(=O)n3C has what MIC?
Output: 2

Input: Entry CCc1cc(=O)n(C)c2c3c4c(cc12)c(C)cc(=O)n4CO3 has what MIC?
Output: 8

Input: Entry CCCn1c(=O)cc(C)c2cc3c(C)cc(=O)n4c3c(c21)OC4 has what MIC?
Output: 16
